tested on: IL-17A-induced G-CSF production in human normal keratinocyte (NHK); test: NHK assay: IL-17A-induced G-CSF production in normal human keratinocytes; format: cell-based; conditions: Homo sapiens, Keratinocyte, 24 h, IL-17A 5 ng/mL, class of the average IC50 where tested more than once
In this section, each of the compounds is paired with its reported IC50.

See these solved cases before continuing.
# compound, measurement target, result
measured = [
    ("O=C(N[C@H](c1cn2ncc(CC3CCCCNC3=O)cc2n1)C1CCC(F)(F)CC1)c1nonc1C1CC1 (single isomer, unassigned) [Example 25]", "IL-17A-induced G-CSF production in human normal keratinocyte (NHK)", "> 4000 nM"),
    ("O=C(N[C@H](c1cn2ncc(C[C@H]3C(=O)NC[C@@H]3C(F)(F)F)cc2n1)C1CCC(F)(F)CC1)c1nonc1C1CC1 (relative stereo) [Example 101]", "IL-17A-induced G-CSF production in human normal keratinocyte (NHK)", "400 to 4000 nM"),
    ("O=C(N[C@H](c1cn2ncc(C[C@H]3CC[C@@H](C(F)(F)F)NC3=O)cc2n1)C1CCC(F)(F)CC1)c1nonc1C1CC1 (relative stereo) [Example 30]", "IL-17A-induced G-CSF production in human normal keratinocyte (NHK)", "> 4000 nM"),
]

The recorded IC50 for entry O=C(N[C@H](c1cn2ncc(C[C@@H]3C(=O)NCC[C@H]3C(F)(F)F)cc2n1)C1CCC(F)(F)CC1)c1nonc1C1CC1 (relative stereo) [Example 3] equals > 4000 nM

The recorded IC50 for entry O=C(N[C@H](c1cn2ncc(C[C@@H]3C[C@@H](C(F)(F)F)NC3=O)cc2n1)C1CCC(F)(F)CC1)c1nonc1C1CC1 (relative stereo) [Example 70] equals < 400 nM

The recorded IC50 for entry CC(C)[C@@H]1C[C@H](Cc2cnn3cc([C@@H](NC(=O)c4nonc4C4CC4)C4CCC(F)(F)CC4)nc3c2)C(=O)N1 (relative stereo) [Example 96] equals > 4000 nM

====

tested on: IL-17A-induced G-CSF production in human normal keratinocyte (NHK); experiment: NHK assay: IL-17A-induced G-CSF production in normal human keratinocytes; type: cell-based; conditions: Homo sapiens, Keratinocyte, 24 h, IL-17A 5 ng/mL, class of the average IC50 where tested more than once
parameter: IC50

# molecule, measurement target, parameter, result
records = [
    ("O=C(N[C@H](c1cn2ncc([C@@H](O)[C@@H]3C[C@@H](C(F)(F)F)NC3=O)cc2n1)C1CCC(F)(F)CC1)c1nonc1C1CC1 (relative stereo)", "IL-17A-induced G-CSF production in human normal keratinocyte (NHK)", "IC50", "0.4 to 4 µM"),
    ("O=C(N[C@H](c1cn2ncc(C[C@@]34CCC[C@H](C3)NC4=O)cc2n1)C1CCC(F)(F)CC1)c1nonc1C1CC1 (single isomer, unassigned)", "IL-17A-induced G-CSF production in human normal keratinocyte (NHK)", "IC50", "< 0.4 µM"),
    ("O=C(N[C@H](c1cn2ncc(C[C@H]3C[C@@H](C(F)(F)F)NC3=O)cc2n1)C1CCC(F)(F)CC1)c1nonc1C1CC1 (relative stereo) [Example 71]", "IL-17A-induced G-CSF production in human normal keratinocyte (NHK)", "IC50", "> 4 µM"),
    ("CC(C)[C@H]1C[C@H](Cc2cnn3cc([C@@H](NC(=O)c4nonc4C4CC4)C4CCC(F)(F)CC4)nc3c2)C(=O)N1 (relative stereo)", "IL-17A-induced G-CSF production in human normal keratinocyte (NHK)", "IC50", "0.4 to 4 µM"),
    ("O=C(N[C@H](c1cn2ncc(C[C@@H]3C(=O)NC[C@H]3C(F)(F)F)cc2n1)C1CCC(F)(F)CC1)c1nonc1C1CC1 (relative stereo)", "IL-17A-induced G-CSF production in human normal keratinocyte (NHK)", "IC50", "> 4 µM"),
]

The recorded IC50 for entry O=C(N[C@H](c1cn2ncc(C[C@@H]3CC[C@@H](C(F)(F)F)NC3=O)cc2n1)C1CCC(F)(F)CC1)c1nonc1C1CC1 (relative stereo) equals > 4 µM

The recorded IC50 for entry CC1(C)CC(Cc2cnn3cc([C@@H](NC(=O)c4nonc4C4CC4)C4CCC(F)(F)CC4)nc3c2)C(=O)N1 (single isomer, unassigned) equals 0.4 to 4 µM

The recorded IC50 for entry O=C(N[C@H](c1cn2ncc([C@@H]3C[C@]34C[C@@H](C(F)(F)F)NC4=O)cc2n1)C1CCC(F)(F)CC1)c1nonc1C1CC1 (relative stereo) equals > 4 µM

The recorded IC50 for entry O=C(N[C@H](c1cn2ncc(C[C@@H]3C[C@H](C(F)(F)F)NC3=O)cc2n1)C1CCC(F)(F)CC1)c1nonc1C1CC1 (relative stereo) equals 0.4 to 4 µM
